System: Escherichia coli
TEST SETTINGS: Concentration 32 ug.mL-1; ASSAY_TEST Inhibition of Bacterial Growth; detection method Absorption (OD600); MEDIA CAMHB; plate type 384well; NBS; CORNING #3640; time 18 hr
Description: Antibacterial activity against Escherichia coli ATCC 25922 (CO-ADD:GN_001); MIC in CAMBH media using NBS plates, by OD(600)
Entries with a potency or affinity are not part of this list.
QUANTITY KIND: Inhibition
Could you give the number and then its unit, please?

CC(=O)O[C@H]1C[C@@]2(C)C(C[C@@H](O)C3[C@@]4(C)CC[C@@H](OC(=O)c5ccccc5C(=O)Oc5ccc(CCO[N+](=O)[O-])cc5)[C@@H](C)C4CC[C@@]32C)/C1=C(\CCC=C(C)C)C(=O)OCc1ccccc1 (some centres undefined): -6.53%
CC(=O)O[C@H]1C[C@@]2(C)C(C[C@@H](O)C3[C@@]4(C)CC[C@@H](OC(=O)CCC(=O)OCCc5ccc(OCCO[N+](=O)[O-])cc5)[C@@H](C)C4CC[C@@]32C)/C1=C(\CCC=C(C)C)C(=O)OCc1ccccc1 (some centres undefined): -8.83%
CC(=O)O[C@H]1C[C@@]2(C)C(C[C@@H](O)C3[C@@]4(C)CC[C@@H](OC(=O)C(C)N)[C@@H](C)C4CC[C@@]32C)/C1=C(\CCC=C(C)C)C(=O)OCc1ccccc1 (some centres undefined): -12.12%

[in] Item CC(=O)O[C@H]1C[C@@]2(C)C(C[C@@H](O)C3[C@@]4(C)CC[C@@H](OC(=O)c5ccccc5C(=O)Nc5ccc(N)cc5)[C@@H](C)C4CC[C@@]32C)/C1=C(\CCC=C(C)C)C(=O)OCc1ccccc1 (some centres undefined) : provide Inhibition
[out] 1.09%

[in] Respond only with Inhibition recorded for CC(=O)O[C@H]1C[C@@]2(C)C(C[C@@H](O)C3[C@@]4(C)CC[C@@H](OC(=O)CO[N+](=O)[O-])[C@@H](C)C4CC[C@@]32C)/C1=C(\CCC=C(C)C)C(=O)OCc1ccccc1 (some centres undefined)
[out] 4.14%

[in] Indicate its recorded Inhibition; the molecule in question is CC(=O)O[C@H]1C[C@@]2(C)C(C[C@@H](O)C3[C@@]4(C)CC[C@@H](OC(=O)C(N)CC(C)C)[C@@H](C)C4CC[C@@]32C)/C1=C(\CCC=C(C)C)C(=O)OCc1ccccc1 (some centres undefined)
[out] -4.43%

[in] Recall and state the measured Inhibition for CC(=O)O[C@H]1C[C@@]2(C)C(C[C@@H](O)C3[C@@]4(C)CC[C@@H](OC(=O)CCC(=O)O)[C@@H](C)C4CC[C@@]32C)/C1=C(\CCC=C(C)C)C(=O)OCc1ccccc1 (some centres undefined) .
[out] 10.14%

[in] Supply measured Inhibition of CC(=O)O[C@H]1C[C@@]2(C)C(CC(=O)C3[C@@]4(C)CCC(=O)[C@@H](C)C4CC[C@@]32C)/C1=C(\CCC=C(C)C)C(=O)OCc1ccccc1 (some centres undefined) in your reply.
[out] -4.11%

[in] Provide one value: measured Inhibition of CC(=O)O[C@H]1C[C@@]2(C)C(CC(=O)C3[C@@]4(C)CC[C@@H](OC(=O)CCCCO[N+](=O)[O-])[C@@H](C)C4CC[C@@]32C)/C1=C(\CCC=C(C)C)C(=O)OCc1ccccc1 (some centres undefined)
[out] -0.69%

====

System: Escherichia coli
TEST SETTINGS: Concentration 32 ug.mL-1; ASSAY_TEST Inhibition of Bacterial Growth; detection method Absorption (OD600); MEDIA CAMHB; plate type 384well; NBS; CORNING #3640; time 18 hr
Results with a measured potency or affinity are listed apart.
QUANTITY KIND: Inhibition (%)
Hi! Could you send only the number? It should be in %, unit omitted.

[in] Recall and state the measured Inhibition for CC(=O)O[C@H]1C[C@@]2(C)C(C[C@@H](O)C3[C@@]4(C)CC[C@@H](OC(=O)CCCCO[N+](=O)[O-])[C@@H](C)C4CC[C@@]32C)/C1=C(\CCC=C(C)C)C(=O)OCc1ccccc1 (stereo not given in full) .
[out] -4.08

[in] Return Inhibition for the following compound: CC(=O)O[C@H]1C[C@@]2(C)C(C[C@@H](O)C3[C@@]4(C)CC[C@@H](O)[C@@H](C)C4CC[C@@]32C)/C1=C(\CCC=C(C)C)C(=O)OCc1ccccc1 (stereo not given in full)
[out] -11.95

[in] Identify measured Inhibition corresponding to CC(=O)O[C@H]1C[C@@]2(C)C(C[C@@H](O)C3[C@@]4(C)CC[C@@H](O)[C@@H](C)C4CC[C@@]32C)/C1=C(\CCC=C(C)C)C(=O)On1nnc2ccccc21 (stereo not given in full)
[out] -6.08

[in] Assign Inhibition to the following record: CC(=O)O[C@H]1C[C@@]2(C)C(C[C@@H](O)C3[C@@]4(C)CC[C@@H](OC(=O)CCC(=O)Oc5ccc(CCO[N+](=O)[O-])cc5)[C@@H](C)C4CC[C@@]32C)/C1=C(\CCC=C(C)C)C(=O)OCc1ccccc1 (stereo not given in full)
[out] -12.6

[in] Tell us which Inhibition value is on record for CC(=O)O[C@H]1C[C@@]2(C)C(C[C@@H](O)C3[C@@]4(C)CC[C@@H](OC(=O)C(N)C(C)C)[C@@H](C)C4CC[C@@]32C)/C1=C(\CCC=C(C)C)C(=O)OCc1ccccc1 (stereo not given in full)
[out] -10.45
